Source listed as patent US7803829B2.

- target.or.test.system: T315I ABL mutant kinase domain (Homo sapiens, UniProt P00519, T315I)
- Construct: ABL kinase domain (corresponding to residues 229-512); GST (N, cleaved yes); PreScission cleavage site (N, cleaved yes); made in house; host or cells: High5 insect cells (baculovirus)
- assay.remarks: ATP site-dependent displacement assay, indolinone probe of 3.2
- Assay type: binding
- study.conditions: Tables 5 and 6; probe 3.2; 3 μM highest inhibitor concentration; average of three experiments
pKd: −log10 of the molar value.
observation.type: pKd

// worked examples, pKd included
compound: CC(C)(NC(=O)c1cc2c(NC(=O)c3ccc(CN4CCCCC4)cc3)n[nH]c2s1)c1ccc(F)cc1 [Compound 6]
target.or.test.system: T315I ABL mutant kinase domain (Homo sapiens, UniProt P00519, T315I)
pKd: 7.76
--
compound: CC(C)NCc1ccc(C(=O)Nc2n[nH]c3sc(C(=O)NC(C)(C)c4ccccc4)cc23)cc1 [Compound 11]
target.or.test.system: T315I ABL mutant kinase domain (Homo sapiens, UniProt P00519, T315I)
pKd: 7.96
--
compound: CN1CCC(Oc2ccc(C(=O)Nc3n[nH]c4sc(C(=O)NC(C)(C)c5ccccc5)cc34)cc2)CC1 [Compound 4]
target.or.test.system: T315I ABL mutant kinase domain (Homo sapiens, UniProt P00519, T315I)
pKd: 8.57
--
compound: CN1CCN(c2ccc(C(=O)Nc3n[nH]c4sc(C(=O)NC(C)(C)c5ccccc5)cc34)cc2)CC1 [Compound 5]
target.or.test.system: T315I ABL mutant kinase domain (Homo sapiens, UniProt P00519, T315I)
pKd: 8.28

P: CN1CCN(c2ccc(C(=O)Nc3n[nH]c4sc(C(=O)NC(C)(C)c5ccccc5F)cc34)cc2)CC1 [Compound 8]
Q: CC(C)(NC(=O)c1cc2c(NC(=O)c3ccc(CN4CCCCC4)cc3)n[nH]c2s1)c1ccccc1 [Compound 1]
R: CC(C)NCc1ccc(C(=O)Nc2n[nH]c3sc(C(=O)NC(C)(C)c4ccccc4F)cc23)cc1 [Compound 7]
Prompt: Order the entries by their reported pKd, beginning at the minimum. Put the labels in the requested order and write them down.
Response: Q, R, P
(Q: 7.43, R: 7.77, P: 8.08)
